# measured_on: Vascular endothelial growth factor receptor 2 (Homo sapiens, UniProt P35968)
# Sequence (P35968 whole entry): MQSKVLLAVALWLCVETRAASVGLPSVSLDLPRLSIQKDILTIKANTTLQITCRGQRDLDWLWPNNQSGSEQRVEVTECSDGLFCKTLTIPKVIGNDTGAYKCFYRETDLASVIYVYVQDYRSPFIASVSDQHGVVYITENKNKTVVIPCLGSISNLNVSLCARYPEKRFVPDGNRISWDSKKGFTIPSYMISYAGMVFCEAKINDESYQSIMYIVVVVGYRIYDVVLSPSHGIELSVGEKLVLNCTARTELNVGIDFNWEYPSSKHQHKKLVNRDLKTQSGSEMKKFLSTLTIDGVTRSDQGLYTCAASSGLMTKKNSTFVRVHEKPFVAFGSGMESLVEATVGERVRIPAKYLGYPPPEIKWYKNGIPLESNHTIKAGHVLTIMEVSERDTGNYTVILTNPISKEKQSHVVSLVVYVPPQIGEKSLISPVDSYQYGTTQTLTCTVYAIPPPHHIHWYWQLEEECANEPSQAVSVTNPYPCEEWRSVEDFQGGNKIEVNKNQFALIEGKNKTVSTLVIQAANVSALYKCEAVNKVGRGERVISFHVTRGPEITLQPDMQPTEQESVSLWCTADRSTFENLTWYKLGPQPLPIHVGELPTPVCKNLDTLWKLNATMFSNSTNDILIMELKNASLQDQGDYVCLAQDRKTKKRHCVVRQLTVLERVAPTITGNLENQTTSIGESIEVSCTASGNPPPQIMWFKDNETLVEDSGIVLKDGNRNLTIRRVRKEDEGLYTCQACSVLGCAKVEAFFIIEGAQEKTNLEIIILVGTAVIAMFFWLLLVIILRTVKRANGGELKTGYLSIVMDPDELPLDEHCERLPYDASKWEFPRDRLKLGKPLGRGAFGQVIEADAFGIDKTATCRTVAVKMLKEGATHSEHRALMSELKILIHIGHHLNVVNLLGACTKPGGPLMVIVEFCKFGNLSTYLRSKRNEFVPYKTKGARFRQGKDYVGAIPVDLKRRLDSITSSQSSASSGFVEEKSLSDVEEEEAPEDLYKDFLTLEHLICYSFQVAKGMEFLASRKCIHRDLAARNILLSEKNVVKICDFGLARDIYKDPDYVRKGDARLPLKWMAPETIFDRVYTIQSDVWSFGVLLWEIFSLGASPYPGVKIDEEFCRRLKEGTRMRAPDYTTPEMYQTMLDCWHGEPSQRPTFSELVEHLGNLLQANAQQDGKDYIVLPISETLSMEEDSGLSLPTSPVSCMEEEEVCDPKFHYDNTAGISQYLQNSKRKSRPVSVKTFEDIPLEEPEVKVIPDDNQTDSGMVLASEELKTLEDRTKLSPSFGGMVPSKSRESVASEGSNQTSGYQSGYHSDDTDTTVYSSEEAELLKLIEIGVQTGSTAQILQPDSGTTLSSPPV
# test_summary: Inhibition of VEGFR-2 (unknown origin)
parameter_measured: IC50 (nM)
# number only, unit nM dropped from output

# lookup: "COc1cc2c(Oc3ccc(NC(=O)N4CCN(c5ccccc5)C4=O)cc3F)ccnc2cc1OCCCN1CCOCC1" on Vascular endothelial growth factor receptor 2 (Homo sapiens, UniProt P35968), IC50 = 30

###

# Test system: MKN-45
# test_summary: Cytotoxicity against c-Met-dependent human MKN45 cells assessed as growth inhibition after 72 hrs by MTT assay
# study_conditions: MKN-45, 72 h
# note: boundary value 400 nM maps to not met; IC50 below it maps to met

smiles_data | answer_label
COc1cc2c(Oc3ccc(NC(=O)c4nn(-c5c(Cl)cccc5Cl)c5ccccc5c4=O)cc3F)ccnc2cc1OCCCN1CCCC1 | met

Please determine if "COc1cc2c(Oc3ccc(NC(=O)c4nn(-c5ccc(Br)cc5)c5ccccc5c4=O)cc3F)ccnc2cc1OCCCN1CCCCC1" is below 400 nM in terms of IC50.
not met

Bench note: check whether "COc1cc2c(Oc3ccc(NC(=O)c4nn(-c5ccc(F)cc5Br)c5ccccc5c4=O)cc3F)ccnc2cc1OCCCN1CCCC1" shows IC50 below 400 nM
not met

Problem: For the compound "COc1cc2c(Oc3ccc(NC(=O)c4nn(-c5ccccc5Cl)c5cc(F)ccc5c4=O)cc3F)ccnc2cc1OCCCN1CCC(C)CC1" , is IC50 under 400 nM?
not met

Decide: IC50 of "COc1cc2c(Oc3ccc(NC(=O)c4nn(-c5ccc(F)c(F)c5)c5ccccc5c4=O)cc3F)ccnc2cc1OCCCN1CCCC1" strictly below 400 nM?
met

I wonder whether "COc1cc2c(Oc3ccc(NC(=O)c4nn(-c5ccccc5Cl)c5ccccc5c4=O)cc3F)ccnc2cc1OCCCN1CCOCC1" has IC50 below 400 nM. Can you tell?
met

Identify whether the compound "COc1cc2c(Oc3ccc(NC(=O)c4nn(-c5ccccc5F)c5ccccc5c4=O)cc3F)ccnc2cc1OCCCN1CCC(C)CC1" records IC50 below 400 nM.
not met

The reported measurements were obtained from ChEMBL document CHEMBL2385045.
